# assay.explanation: Inhibition of Globodera rostochiensis hatching
# Format: functional
pIC50: −log10 of the molar value.
experimental.endpoint: pIC50

1. O=C(/C=C/c1ccccc1)c1ccccc1 [CHALCONE] | 2.15

* * *

# Tested on: Plasmodium falciparum
# assay.explanation: Antiplasmodial activity against Plasmodium falciparum
# Assay type: functional, organism-based
pIC50: −log10 of the molar value.
experimental.endpoint: pIC50

1) O=C(/C=C/c1cccnc1)c1ccc(F)cc1 | 4.77

* * *

# assay.explanation: Toxicity against Globodera pallida
experimental.endpoint: LC50 (mM)

1. O=C(/C=C/c1ccccc1)c1ccccc1 [CHALCONE] | 33
